# Test system: Acinetobacter baumannii
# method_notes: Antibacterial activity against Acinetobacter baumannii ATCC 19606 (CO-ADD:GN_034); MIC in CAMBH media using NBS plates, by Resazurin F(560/590)
# Format: functional
# condition_parameters: Concentration 20 uM, ASSAY_TEST Inhibition of Bacterial Growth, detection method Resazurin, Fluorescence (ex560/em590), MEDIA CAMHB, plate type 384well, CORNING #3640, time 18 hr
readout: Inhibition (%)

INSERT INTO assay_data (compound, target_system, units_symbol, numeric_readout) VALUES
  ('COC(=O)c1ccccc1NCCO', 'Acinetobacter baumannii', '%', 2.46),
  ('Clc1c(Cl)c(Cl)c2[nH]nnc2c1Cl', 'Acinetobacter baumannii', '%', -8.91),
  ('CCOC(=O)C(=O)C1C(=O)Nc2ccccc21 (stereo unspecified)', 'Acinetobacter baumannii', '%', 4.6),
  ('CC(=O)[C@H]1CC[C@H]2[C@@H]3CCC4=CC(=O)CC[C@]4(C)[C@@]3(F)[C@@H](O)C[C@]12C', 'Acinetobacter baumannii', '%', -16.68),
  ('Cc1c2cnccc2c(C)c2c1c1ccccc1n2CCOC(=O)c1ccccc1', 'Acinetobacter baumannii', '%', 14.72),
  ('CSc1nc(O)c(Nc2cccc(Cl)c2)c(O)n1', 'Acinetobacter baumannii', '%', 14.23);

====

# Test system: Cryptococcus neoformans
# condition_parameters: Concentration 20 uM; ASSAY_TEST Inhibition of Fungal Growth; detection method Resazurin; Absorption (OD600-OD570); plate type 384well; NBS; CORNING #3640
# Description: Antifungal activity against Cryptococcus neoformans H99 ATCC 208821 (CO-ADD:FG_002); MIC in YNB media using NBS plates, by Resazurin OD(600-570)
Potency and affinity values are given separately.
Recorded measurements of Inhibition, one per entry
readout: Inhibition (%)

INSERT INTO measurements (compound, readout, numeric_readout) VALUES
  ('CCCCSc1cc(C)nc(N)n1', 'Inhibition', -5.9),
  ('NC(CSC1(c2cccc3ccccc23)c2ccccc2-c2ccccc21)C(=O)O (configuration not stated)', 'Inhibition', -2.74),
  ('Nc1nc(SCc2ccccc2)sc1C(=O)N1CCCCC1', 'Inhibition', -7.01),
  ('c1ccc2cc(OCCOCCOc3ccc4ccccc4c3)ccc2c1', 'Inhibition', -6.02),
  ('CCOC(=O)c1cnc(SCC)nc1O', 'Inhibition', -8.17),
  ('Cc1ccc(NC(=O)N2CCCCC2)cc1[N+](=O)[O-]', 'Inhibition', -11.71),
  ('Oc1ccc(N/C(S)=N/c2ccccc2)cc1', 'Inhibition', 2.65),
  ('CS(=O)(=O)Oc1ccc(Br)c2cccnc12', 'Inhibition', -11.45),
  ('O=C(O)c1ccc2c(c1Nc1ccccc1)C(=O)c1ccccc1C2=O', 'Inhibition', -10.37),
  ('Cn1nc(N)c2ncc(C(Cl)(Cl)Cl)nc21', 'Inhibition', -10.84),
  ('C=CCOCCN(CC)CC', 'Inhibition', 15.03),
  ('Nc1ccccc1SC1CC(=O)N(c2ccc(Cl)c(Cl)c2)C1=O (configuration not stated)', 'Inhibition', -1.72),
  ('Cc1cccc(C(O)C(O)c2cccc(C)n2)n1 (configuration not stated)', 'Inhibition', -7.77),
  ('c1ccc2c(c1)cnc1ccccc12', 'Inhibition', -7.16),
  ('CSc1cccc(NC(=O)Nc2ccccc2C(N)=O)c1', 'Inhibition', -13.91),
  ('NC(CC(=O)Nc1cc(C(F)(F)F)ccc1Cl)=NO', 'Inhibition', -11.78),
  ('CN1CCC(n2[nH]c(-c3ccccc3)c(Cc3ccccc3)c2=O)CC1', 'Inhibition', -11.9),
  ('Oc1ccc(Cc2ccccc2Cl)c(O)c1', 'Inhibition', -12.35),
  ('N#Cc1ncc(Cl)c2ccccc12', 'Inhibition', -7.62),
  ('CC1CO/C(=C2\C(=O)OCC2C)C1 (configuration not stated)', 'Inhibition', -12.83),
  ('Cc1ccc(C2C=CC(C#N)=CN2Cc2ccccc2)cc1 (configuration not stated)', 'Inhibition', -7.94),
  ('O=[N+]([O-])c1cccnc1Oc1cccnc1', 'Inhibition', -10.27),
  ('CC1=CC(=O)CC(C)(C)C1(O)/C=C/C(C)=C/C(=O)O (configuration not stated)', 'Inhibition', -3.67),
  ('FC(F)(F)c1cccc(OCC2CN=C(S)O2)c1 (configuration not stated)', 'Inhibition', 3.63),
  ('O=C1c2ccccc2C(=Cc2cccnc2)c2ccccc21', 'Inhibition', -9.38),
  ('C(=C\CSc1ccccn1)/CSc1ccccn1', 'Inhibition', -12.06),
  ('Cc1n[nH]c2nc(N)nn2c1=O', 'Inhibition', -10.19),
  ('Oc1cc(-n2cccn2)c(O)cc1-n1cccn1', 'Inhibition', -4.6),
  ('O=C(Nc1ccc2ccccc2c1)c1ccc(Cl)cc1Cl', 'Inhibition', -1.28),
  ('Nc1cc(Nc2ccc(Br)cc2)nc(N)n1', 'Inhibition', -4.88),
  ('NC(=S)N/N=C/c1cc(-c2cccc(N)c2)ccn1', 'Inhibition', -12.06),
  ('Oc1cc(-c2ccc(Cl)cc2)nc2ccccc12', 'Inhibition', 5.32),
  ('COc1ccc2[nH]c(-c3ccccc3)cc2c1', 'Inhibition', -9.39),
  ('CCCNC(=O)c1ccc(Cl)cc1Cl', 'Inhibition', -4.71),
  ('COC(=O)C(=Cc1ccccc1[N+](=O)[O-])C(=O)OC', 'Inhibition', -18.32),
  ('Cc1cc2cc3n(c2nn1)N=C(Cl)CC3', 'Inhibition', -3.5),
  ('CN(C)S(=O)(=O)Nc1cccc(Br)c1', 'Inhibition', 43.58),
  ('N#CC1=CC2CN(Cc3ccccc3)C1C1C(=O)N(c3ccccc3)C(=O)C21 (configuration not stated)', 'Inhibition', 18.01),
  ('O=C(c1ccccc1)c1ccc(Sc2ccc([N+](=O)[O-])cc2)cc1', 'Inhibition', -2.51),
  ('CO/N=C1/C=C(C)C(=O)C(C)=C1C', 'Inhibition', -4.8),
  ('NC(=O)CCC(C(=O)O)N1C(=O)c2ccc(O)cc2C1=O (configuration not stated)', 'Inhibition', -2.28),
  ('CN1CCC(=C(c2ccc(Cl)cc2)c2ccccn2)CC1.O=C(O)/C=C\C(=O)O [CYCLIRAMINE MALEATE]', 'Inhibition', -5.61),
  ('CCN(CC)CCNc1c(C)nc(C#N)c(N)[n+]1[O-]', 'Inhibition', -16.29),
  ('CC(C)(C)n1nc(C2CC2)cc1NC(=O)Nc1ccc(Cl)cc1', 'Inhibition', 3.95),
  ('Cc1cc(N2CCOCC2)nc(N2CCOCC2)n1', 'Inhibition', -7.95),
  ('CN(CC(=O)O)Cc1oc(CO)cc(=O)c1O', 'Inhibition', -9.52),
  ('Cc1cccnc1NC(=O)c1csnn1', 'Inhibition', -4.1),
  ('COc1cc(C(=O)C(=O)c2ccc(O)c(OC)c2)ccc1O', 'Inhibition', -17.88),
  ('N#C/C(=C\c1cccnc1)c1ccc(Br)cc1', 'Inhibition', -4.26),
  ('CCC(C)c1c(N)n(S(=O)(=O)c2ccc(C)cc2)oc1=O (configuration not stated)', 'Inhibition', -2.18),
  ('O=C(Nc1ccccc1)Nc1ccccn1', 'Inhibition', -4.64),
  ('O=C(O)c1cc(O)ccc1/N=N/c1ccccc1', 'Inhibition', -9.07);

====

# Tested on: Klebsiella pneumoniae
# condition_parameters: Concentration 20 uM; ASSAY_TEST Inhibition of Bacterial Growth; detection method Absorption (OD600); MEDIA CAMHB; plate type 384well; NBS; CORNING #3640; time 18 hr
# Description: Antibacterial activity against Klebsiella pneumoniae MDR ATCC 70063 (CO-ADD:GN_003); MIC in CAMBH media using NBS plates, by OD(600)
Potency and affinity values are given separately.
Recorded measurements of Inhibition, one per entry
readout: Inhibition (%)

INSERT INTO measurements (molecule, target_system, units_symbol, numeric_readout) VALUES
  ('O=C(O)/C=C\C(=O)Nc1ccc(-c2ccccc2)cc1', 'Klebsiella pneumoniae', '%', 15.61),
  ('Oc1ccnc2c(Cl)cccc12', 'Klebsiella pneumoniae', '%', 5.9),
  ('c1ccc(-c2ccc3c(c2)NCCN3)cc1', 'Klebsiella pneumoniae', '%', 8.37),
  ('Nc1ccnn1-c1ccccc1', 'Klebsiella pneumoniae', '%', 26.2),
  ('COC(=O)C1=C(C(=O)OC)[C@@H]2CCC[C@H]1[C@H]1[C@@H]2N=NN1c1ccccc1', 'Klebsiella pneumoniae', '%', 9.18),
  ('S=C(Nc1ccccc1)Nc1nccs1', 'Klebsiella pneumoniae', '%', 13.95),
  ('NC(=N\c1ccc(N)cc1)/C(N)=N/c1ccc(N)cc1', 'Klebsiella pneumoniae', '%', 7.69),
  ('COc1c(/C=N/NC(N)=O)c(OC)c(OC)c2c1CCO2', 'Klebsiella pneumoniae', '%', 15.41),
  ('Cc1cc(O)c2cc(C(=O)c3ccccc3)ccc2n1', 'Klebsiella pneumoniae', '%', 7.32),
  ('COc1ccc2c(c1)C(=O)C1NC(=O)NC(=O)C1(Br)N2 (configuration not stated)', 'Klebsiella pneumoniae', '%', 4.36),
  ('C#C[C@]1(O)CC[C@H]2[C@@H]3CCC4=Cc5oncc5C[C@]4(C)[C@H]3CC[C@@]21C', 'Klebsiella pneumoniae', '%', 6.03),
  ('CC1(CN2CCCC2)CCC(NC(=O)C(c2ccccc2)c2ccccc2)C(C)(C)O1 (configuration not stated)', 'Klebsiella pneumoniae', '%', 18.43);
